Kindly state TGI for each of the entries shown.
- Tested on: SK-MEL-5 melanoma
- ASSAY_DETAILS: NCI tumour cell line growth inhibition, 48 h
Numbers only, in µM.

COMPOUND: OCCCCC#Cc1ccccc1C#Cc1ccccc1C(F)(F)F
READING_UNIT: µM
TGI: 24.4
--
COMPOUND: S=C(N/N=C/c1ccccn1)Nc1ccccn1
READING_UNIT: µM
TGI: 11.3
--
COMPOUND: CC(=O)OCC1OC(O[C@@H]2c3c(O)c4c(c(O)c3C3=C(NN(c5ccc([N+](=O)[O-])cc5[N+](=O)[O-])[Se]3=O)[C@@]2(C)O)C(=O)c2ccccc2C4=O)C(OC(C)=O)C(OC(C)=O)C1OC(C)=O (stereo partly specified)
READING_UNIT: µM
TGI: 0.42
--
COMPOUND: CC1C[C@]2(C)C(=S)Nc3ccccc3[C@@H]2Nc2ccccc21 (stereo partly specified)
READING_UNIT: µM
TGI: 31.7
--
COMPOUND: O=C([CH-]C(=O)c1ccccc1)c1ccccc1.O=C([CH-]C(=O)c1ccccc1)c1ccccc1.[Nd+3].[OH-].[OH3+]
READING_UNIT: µM
TGI: 17.2

For the 4 compounds below, give their TGI values.
1. Cc1cc2c(s1)C(=O)c1sccc1C2=O
2. CC1NOC(=O)C1N=Nc1ccccc1Cl (stereo unspecified)
3. O=[N+]([O-])/C=C/c1c[nH]c2ccccc12
4. Cc1ccccc1N(C)S(=O)(=O)c1ccccc1[N+](=O)[O-]

1. 0.301
2. 32.9
3. 32.1
4. 30.7
